Measured values drawn from patent US20230086702A1 for this set.

Target: DLK (Homo sapiens, UniProt Q12852)
Construct: 10 nM DLK, catalytic domain, Carna Biosiences; purchased Carna Biosciences ('Carna Biosiences' [sic])
Sequence (Q12852 125-366 limits assumed): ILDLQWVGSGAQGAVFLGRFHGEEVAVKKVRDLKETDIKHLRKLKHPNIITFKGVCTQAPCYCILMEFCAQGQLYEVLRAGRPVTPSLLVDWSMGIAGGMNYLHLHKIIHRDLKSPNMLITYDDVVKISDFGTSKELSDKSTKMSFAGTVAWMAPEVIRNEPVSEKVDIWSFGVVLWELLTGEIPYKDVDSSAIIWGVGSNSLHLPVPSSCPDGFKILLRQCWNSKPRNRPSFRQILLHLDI
Test: DLK biochemical assay (TR-FRET, MKK7 phosphorylation)
Experimental: DLK assay is a biochemical assay format designed to screen for inhibitors of DLK. Enzymatic activity of DLK is measured by monitoring phosphorylation of the physiological substrate MKK7 (MAP2K7, Dual specificity mitogen-activated protein kinase kinase 7). Phosphorylation is detected by a TR-FRET system whereby His-tagged MKK7 is labeled by a XL665-labeled anti-His antibody (FRET acceptor, emission 665 nm). […]
pIC50: −log10 of the molar value.
pIC50 below 8 gives false (0); pIC50 at or above it gives true (1).

1) Nc1nc2c(-c3cc(CO)ccc3Cl)cc(-c3cnn(C(c4ccc(C(F)(F)F)nc4)C4CCOCC4)c3)cn2n1 (single isomer, unassigned) [II-5]; true (1)
2) CCC(c1ccc(OC(F)(F)F)nc1)n1cc(-c2cc(-c3ccc(=O)n(CC(F)(F)F)c3)c3nc(N)nn3c2)cn1 (single isomer, unassigned) [II-165]; false (0)
3) CC(C)C(c1ccc(C(F)(F)F)nc1)n1cc(-c2cc(-c3ccc(C(F)F)nc3)n3nc(N)nc3c2)cn1 (racemic) [II-70]; false (0)
4) CC(C)[C@@H](c1ccc(C(F)(F)F)nc1)n1cc(-c2cc(-c3cnn(C4CCCC4)c3)n3nc(N)nc3c2)cn1 [II-145]; true (1)
5) Cc1cc(-c2cc(-c3cnn(Cc4ccccc4)c3)cc3nc(N)nn23)cnn1 [II-88]; false (0)
6) Nc1nc2cc(-c3cnn(C(c4ccccc4)C4CCOCC4)c3)cc(-c3cnn(CC(F)(F)F)c3)n2n1 (centres unmarked) [II-146]; true (1)
7) CC[C@@H](c1ccccc1)n1cc(-c2cc(-c3cnn(CC)c3)c3nc(N)nn3c2)cn1 [II-91]; true (1)
8) Nc1nc2cc(-c3cnn(Cc4ccccc4)c3)cc(-c3cnn(C4CCOCC4)c3)n2n1 [II-126]; false (0)
9) CC(C)C(c1ccc(C(F)F)nc1)n1cc(-c2cc(-c3ccc(C(F)(F)F)nc3)n3nc(N)nc3c2)cn1 (racemic) [II-64]; false (0)
10) Nc1nc2cc(-c3cnn(C(c4ccc(C(F)(F)F)nc4)C4CCOCC4)c3)cc(-c3ccc(=O)n(C(F)F)c3)n2n1 (single isomer, unassigned) [II-184]; true (1)
11) CC(C)C(c1ccc(C(F)(F)F)nc1)n1cc(-c2cc(-c3ccnc(C(F)(F)F)c3)n3nc(N)nc3c2)cn1 (single isomer, unassigned) [II-29]; false (0)
12) Nc1nc2cc(-c3cnn(C(c4ccc(C(F)(F)F)nc4)C4CCOCC4)c3)cc(-c3cn(CC(F)(F)F)c(=O)cn3)n2n1 (single isomer, unassigned) [II-195]; true (1)
13) CCC(c1ccc(C(F)F)nc1)n1cc(-c2cc(-c3ccc(C(F)(F)F)nc3)n3nc(N)nc3c2)cn1 (racemic) [II-61]; false (0)
14) CCC(c1ccc(C(F)F)nc1)n1cc(-c2cc(-c3cnn(CC(F)(F)F)c3)c3nc(N)nn3c2)cn1 (single isomer, unassigned) [II-106]; false (0)
15) CC(C)C(c1ccc(C(F)F)nc1)n1cc(-c2cc(-c3ccc(OC(F)F)nc3)n3nc(N)nc3c2)cn1 (single isomer, unassigned) [II-50]; false (0)
16) CC[C@@H](c1ccccc1)n1cc(-c2cc(-c3cnn(CC(F)(F)F)c3)c3nc(N)nn3c2)cn1 [II-93]; false (0)
17) Nc1nc2cc(-c3cnn(C(c4ccc(C(F)(F)F)nc4)C4CCOCC4)c3)cc(-c3ccc(=O)n(CC(F)F)c3)n2n1 (single isomer, unassigned) [II-186]; true (1)
18) CC(C)C(c1ccc(C(F)(F)F)nc1)n1cc(-c2cc(-c3ccc(C4CC(F)(F)C4)nc3)n3nc(N)nc3c2)cn1 (racemic) [II-73]; false (0)
19) Nc1nc2c(-c3cnn(CC(F)(F)F)c3)cc(-c3cnn(C(c4ccc(C(F)(F)F)nc4)C4CCOCC4)c3)cn2n1 (single isomer, unassigned) [II-119]; true (1)
20) CCC(c1ccc(N2CCOCC2)cc1)n1cc(-c2cc(-c3cnn(CC(F)(F)F)c3)c3nc(N)nn3c2)cn1 (racemic) [II-102]; true (1)
21) Nc1nc2c(-c3ccc(=O)n(CC(F)(F)F)c3)cc(-c3cnn([C@H](c4ccc(C(F)(F)F)nc4)C4CCOCC4)c3)cn2n1 [II-162]; true (1)
